experimental protocol: Primary qHTS for delayed death inhibitors of the malarial parasite plastid, 48 hour incubation
condition summary: P. falciparum luciferase growth in erythrocytes; series mostly up to 28.7 µM
In all, about 310,000 compounds went through this assay and about 18,000 (5.8%) were called active. Roughly 22% stayed inconclusive and do not appear here. The call rests on the fitted dose curve; in most records, active means well fitted inhibition curve with a large enough effect; inconclusive means small, poorly fitted or top-dose-only effect, or another doubt; inactive means no such curve, though single readings can be large or run the other way. The sample as a whole holds a higher share of actives than the screen did.
Result category, one only: yes (1) (active), no (0) (inactive)

q: Hello, I am checking results. What call was entered for `O=c1onc(-c2cccs2)n1Cc1ccccc1` ?
a: no (0)

q: Note, next up: `N#CCCN(C(=O)COC(=O)C1CCN(c2ccc(C(F)(F)F)cn2)CC1)c1ccc(F)cc1`
a: no (0)

q: Same question for `O=C(OCC(=O)N1CCCC1)c1ccc(Cl)nc1` please.
a: no (0)

q: Proceed to `Cc1cc(-c2csc(N)n2)c(C)n1-c1ccccc1`
a: yes (1)

q: And for Cc1ccc(S(=O)(=O)NCC(=O)N(CC(=O)NCC2CCCO2)c2cccc(F)c2)cc1 (stereo unspecified) ?
a: no (0)

q: One more compound: `CCOCCCNC(=S)Nc1ccc2nc(N3CCN(CC)CC3)cc(C)c2c1`
a: no (0)

q: Then this compound: `CCCc1cc(-c2n[nH]c(=S)n2Cc2ccccc2)cs1`
a: no (0)

q: Consider next the compound Cc1ccc(C(=O)N2CC(=O)Nc3ccc(F)cc3C2c2ccc(F)cc2)cc1 (stereo unspecified) in the same way.
a: no (0)

q: // query: `CC(C)N(C(=O)Cn1cc(S(=O)(=O)CC(=O)N2CCOCC2)c2ccccc21)C(C)C`
a: no (0)

q: Same read-out for CC1Sc2ccc(S(=O)(=O)CCC(=O)NCc3ccccc3Cl)cc2NC1=O (stereo unspecified) ?
a: no (0)

q: Can you check `S=c1[nH]nc(-c2cc(-c3ccsc3)n[nH]2)n1-c1ccccc1` next?
a: no (0)

====

experimental protocol: Primary qHTS for delayed death inhibitors of the malarial parasite plastid, 48 hour incubation
condition summary: P. falciparum luciferase growth in erythrocytes; series mostly up to 28.7 µM
Out of some 310,000 compounds screened, about 18,000 (5.8%) were called active. Inconclusive results (about 22%) are left out. Calls come from the whole dose curve; as a rule, active = well fitted inhibition curve with a large enough effect; inconclusive = small, poorly fitted or top-dose-only effect, or another doubt; inactive = no such curve, though single readings can be large or run the other way. What follows is part of a selection rich in actives, with near analogues and random picks from the rest.
// allowed return values: y = active, n = inactive

q: # lookup: test call for `CCc1ccc2[nH]c(=O)c(Cc3ccccc3)c(O)c2c1`
a: n

q: Next compound up: `C/C(CC(=O)Nc1ccc(N(C)C)cc1)=N\NC(=O)c1ccccc1F`
a: n

q: Same thing, different compound: `O=C(O)c1cccnc1Sc1ncnc2sc3c(c12)CCC3`
a: n

q: Another: COc1ccccc1C(=O)NC(CCSC)C(=O)NNC(=O)c1ccccc1C (stereo unspecified)
a: n

q: Now try `COc1ccc(NC(=O)CCC(=O)Nc2cc(OC)c(NC(=O)c3ccco3)cc2OC)c(OC)c1` .
a: n

q: Another: `CN(CC(=O)Nc1ccc(Cl)c(C(F)(F)F)c1)C(=O)CCC(=O)c1ccccc1`
a: n

q: Would you kindly repeat that for `OCCNc1nc2ccccc2n1-c1ncnc2sc3c(c12)CCC3` ?
a: y

q: How about this compound: `CCOC(=O)c1sc(NC(=O)c2sc(C)nc2C)nc1C`
a: n

q: Another compound to look at: `COc1ccc2oc(=N)c(C(=O)Nc3ccc(Br)cc3)cc2c1`
a: n

q: Also check COc1ccc(S(=O)(=O)N2CCN(C(C)C(=O)Nc3ccc(C(C)C)cc3)CC2)cc1 (stereo unspecified)
a: y

q: Again, but for CCOC(=O)c1sc(NC(=O)C2CSC3(C)CCC(=O)N23)nc1C (stereo unspecified)
a: n
